Data origin: paper PMC10687119

- Test system: A. baumannii ATCC BAA 1605
- Format: cell-based, Acinetobacter baumannii
- applied conditions: ATCC BAA 1605, 18 h
property label: MIC (µg/mL)
Reply numerically in µg/mL, unit not repeated.

| compound | property label | result |
| --- | --- | --- |
| CCCCCCCCCCCCCC(=O)N[C@@H](CCCCN)C(=O)N[C@@H](CCCCN)C(=O)N[C@@H](CCCCN)C(N)=O [Peptide 3M, C14-KKK-NH2] | MIC | 512 |

Need MIC of CCCCCCCCCCCCCC(=O)N[C@@H](CCCC[N+](C)(C)C)C(N)=O [Peptide 1Mq, C14-K(Me3)^+-NH2] , thanks.
128
